# target_or_system: MELK (Homo sapiens)
# Sequence (Q14680 whole entry, looked up): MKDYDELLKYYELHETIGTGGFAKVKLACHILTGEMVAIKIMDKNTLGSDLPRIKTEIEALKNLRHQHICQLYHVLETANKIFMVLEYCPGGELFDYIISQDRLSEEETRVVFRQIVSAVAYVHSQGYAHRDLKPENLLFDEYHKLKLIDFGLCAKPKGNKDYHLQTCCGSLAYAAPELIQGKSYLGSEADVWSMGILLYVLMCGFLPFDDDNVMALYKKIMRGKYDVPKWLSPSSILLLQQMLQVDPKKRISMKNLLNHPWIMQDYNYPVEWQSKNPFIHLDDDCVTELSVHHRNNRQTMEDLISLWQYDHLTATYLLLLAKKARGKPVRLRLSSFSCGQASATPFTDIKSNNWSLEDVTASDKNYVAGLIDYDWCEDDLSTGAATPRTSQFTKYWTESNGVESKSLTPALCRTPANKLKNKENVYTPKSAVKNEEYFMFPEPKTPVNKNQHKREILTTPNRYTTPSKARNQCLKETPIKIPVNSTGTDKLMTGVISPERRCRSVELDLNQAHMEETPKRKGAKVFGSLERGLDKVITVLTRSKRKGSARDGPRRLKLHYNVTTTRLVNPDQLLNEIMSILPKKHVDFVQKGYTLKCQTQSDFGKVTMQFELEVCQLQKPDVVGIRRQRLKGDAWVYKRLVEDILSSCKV
# measurement_protocol: Kinase assay (IMAP fluorescence polarization, FITC-labeled histone H3 peptide)
# Format: biochemical
# condition_notes: 50 micro-M ATP
Structures can show the parent of a compound that is named as a salt.
property_label: IC50 (µM)
Numbers only, in µM.

compound	target_or_system	property_label	result_value
CC(=O)c1cnc2ccc(-c3cc(F)c(O)c(Cl)c3)nc2c1Nc1ccc(N2CCC[C@H](N)C2)nc1 [Example 72, trihydrochloride]	MELK (Homo sapiens)	IC50	0.0043
CC(=O)c1cnc2ccc(-c3cc(Cl)c(O)c(Cl)c3)nc2c1N[C@H]1CC[C@H](CN2CCCC2)CC1 [Example 61, dihydrochloride]	MELK (Homo sapiens)	IC50	0.0004

If you can, please state the reported IC50 value of CC(=O)c1cnc2ccc(-c3cc(Cl)c(O)c(Cl)c3)nc2c1N[C@H]1CC[C@H](NC(=O)C(N)C(C)C)CC1 (stereo partly drawn) [Example 79, dihydrochloride] .
0.0016
